Test: Study of the stability of the crystal forms (HPLC purity and XRPD crystal form, Day 7)
Type: physicochemical
Details: HPLC purity, 4° C., Day 7, spread flat in the air
Kindly supply the reported Purity % values for the records listed here.
Give a bare numeral; the unit % is implied.

Need Purity %, item COc1cn([C@@H](Cc2ccccc2)C(=O)Nc2ccc(C(=O)O)cc2)c(=O)cc1-c1cc(Cl)ccc1C(C)=O [Crystal form D] 98.4

Need Purity %, item COc1cn([C@@H](Cc2ccccc2)C(=O)Nc2ccc(C(=O)O)cc2)c(=O)cc1-c1cc(Cl)ccc1C(C)=O [Crystal form F] 99.17

Need Purity %, item COc1cn([C@@H](Cc2ccccc2)C(=O)Nc2ccc(C(=O)O)cc2)c(=O)cc1-c1cc(Cl)ccc1C(C)=O [Crystal form C] 99.28

Need Purity %, item COc1cn([C@@H](Cc2ccccc2)C(=O)Nc2ccc(C(=O)O)cc2)c(=O)cc1-c1cc(Cl)ccc1C(C)=O [Crystal form A] 98.94
